Target: T1, membrane LIGHT A190S (human, UniProt O43557 1-240)
T1 chain: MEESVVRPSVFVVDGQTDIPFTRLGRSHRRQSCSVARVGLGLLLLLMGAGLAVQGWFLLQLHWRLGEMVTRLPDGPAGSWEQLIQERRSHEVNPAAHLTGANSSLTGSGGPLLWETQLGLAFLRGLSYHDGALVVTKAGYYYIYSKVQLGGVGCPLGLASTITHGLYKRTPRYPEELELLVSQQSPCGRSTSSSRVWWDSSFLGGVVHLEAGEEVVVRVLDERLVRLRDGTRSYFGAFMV
Assay: flow cytometry, transfected HEK293FF, mAb at EC50
observable: binding, % of WT (%)
Could you give me the number in %? Just the number is fine.

binder	measureUnit	binding, % of WT
3E09 (antibody, V domains shown, chimeric human IgG4 (S-to-P, L-to-E at 248), human CL; also called Parental 3E09) VH: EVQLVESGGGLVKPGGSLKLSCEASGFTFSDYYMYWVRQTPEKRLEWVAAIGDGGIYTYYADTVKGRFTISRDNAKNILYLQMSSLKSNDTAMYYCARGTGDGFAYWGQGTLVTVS VL: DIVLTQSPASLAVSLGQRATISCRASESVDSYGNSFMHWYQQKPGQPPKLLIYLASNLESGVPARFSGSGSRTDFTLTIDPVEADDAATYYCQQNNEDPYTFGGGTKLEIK	%	97

For reference, reported binding, % of WT for 3C10 (antibody, human IgG4, V domains shown, chimeric human IgG4 (S-to-P, L-to-E at 248), human CL; also called Parental 3C10) VH: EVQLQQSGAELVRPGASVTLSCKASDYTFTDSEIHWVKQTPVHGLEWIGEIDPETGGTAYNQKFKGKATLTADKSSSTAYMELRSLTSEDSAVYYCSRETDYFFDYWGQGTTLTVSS VL: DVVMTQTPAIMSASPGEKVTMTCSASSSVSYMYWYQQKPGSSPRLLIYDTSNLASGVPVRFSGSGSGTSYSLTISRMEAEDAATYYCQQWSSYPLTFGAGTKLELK stands at 40

// recorded binding, % of WT for 3D12 (antibody, human IgG4, V domains shown, chimeric: mouse variable domains on human IgG4 HC (S-to-P and L-to-E at 248) and human CL; also called Parental 3D12; 3D12 chimeric) VH: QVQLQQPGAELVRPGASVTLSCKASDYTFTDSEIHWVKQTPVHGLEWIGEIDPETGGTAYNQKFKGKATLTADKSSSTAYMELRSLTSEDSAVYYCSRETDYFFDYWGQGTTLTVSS VL: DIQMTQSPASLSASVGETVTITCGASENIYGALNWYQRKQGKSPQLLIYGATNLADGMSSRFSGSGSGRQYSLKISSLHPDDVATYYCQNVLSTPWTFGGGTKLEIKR : 82
